procedure_summary: Absorption and fluorescence properties in water
Assay type: physicochemical
reported_endpoint: λabs (nm)
Answer with a number only, understood to be in nm.

Query block: Which λabs value belongs to Cc1ccc(/C=C/C2=Nc3ccc4ccccc4c3C2(C)C)cc1[N+](=O)[O-] [Compound 3k] ?
Result block: 425

Query block: Which λabs value belongs to CC1(C)C(/C=C/c2ccccc2)=Nc2ccc3ccccc3c21 [Compound 3a] ?
Result block: 397

Query block: Which λabs value belongs to CC1(C)C(/C=C/c2cc([N+](=O)[O-])ccc2Cl)=Nc2ccc3ccccc3c21 [Compound 3c] ?
Result block: 443

Query block: Which λabs value belongs to CC1(C)C(/C=C/c2cccc(C(F)(F)F)c2)=Nc2ccc3ccccc3c21 [Compound 3n] ?
Result block: 426

Query block: Which λabs value belongs to CC1(C)C(/C=C/c2cccc([N+](=O)[O-])c2)=Nc2ccc3ccccc3c21 [Compound 3m] ?
Result block: 424

Query block: Which λabs value belongs to CC1(C)C(/C=C/c2ccc3ccccc3c2)=Nc2ccc3ccccc3c21 [Compound 3l] ?
Result block: 437

Query block: Which λabs value belongs to CC1(C)C(/C=C/c2ccc(F)c(C#N)c2)=Nc2ccc3ccccc3c21 [Compound 3j] ?
Result block: 369

Query block: Which λabs value belongs to CC1(C)C(/C=C/c2ccc(C(F)(F)F)cc2)=Nc2ccc3ccccc3c21 [Compound 3e] ?
Result block: 415

###

For each of the compounds below, state its Stokes shift.
procedure_summary: Absorption and fluorescence properties in water
Assay type: physicochemical

Query block: Which Stokes shift value belongs to "CC1(C)C(/C=C/c2ccc(C#N)c(F)c2)=Nc2ccc3ccccc3c21" ?
Result block: 102 nm

Query block: Which Stokes shift value belongs to "CC1(C)C(/C=C/c2ccc(F)cc2)=Nc2ccc3ccccc3c21" ?
Result block: 102 nm

Query block: Which Stokes shift value belongs to "COc1ccc(/C=C/C2=Nc3ccc4ccccc4c3C2(C)C)cc1[N+](=O)[O-]" ?
Result block: 146 nm

Query block: Which Stokes shift value belongs to "CC1(C)C(/C=C/c2cc([N+](=O)[O-])ccc2Cl)=Nc2ccc3ccccc3c21" ?
Result block: 98 nm

Query block: Which Stokes shift value belongs to "CC1(C)C(/C=C/c2cccc(C(F)(F)F)c2)=Nc2ccc3ccccc3c21" ?
Result block: 94 nm

Query block: Which Stokes shift value belongs to "Cc1ccc(/C=C/C2=Nc3ccc4ccccc4c3C2(C)C)cc1[N+](=O)[O-]" ?
Result block: 98 nm

Query block: Which Stokes shift value belongs to "CC1(C)C(/C=C/c2cc(C(F)(F)F)cc(C(F)(F)F)c2)=Nc2ccc3ccccc3c21" ?
Result block: 109 nm

Query block: Which Stokes shift value belongs to "CC1(C)C(/C=C/c2ccc3ccccc3c2)=Nc2ccc3ccccc3c21" ?
Result block: 86 nm

Source: patent US12503437B2
